Assay Name: Cytotoxicity against HEK293T cells after 24 hrs by MTT assay
Assay type: cell-based, HEK-293T
Condition Context: human
# CC50 at 24 h annotations
Measured Quantity: CC50 at 24 h (µM)

[[record]]
compound = "O=c1cc(O)cc(/C=C/C2CCCCC2)[nH]1"
measured_quantity = "CC50 at 24 h"
inequality_symbol = "="
endpoint_value = 13.8

[[record]]
compound = "Cc1ccc(/C=C/c2cc(O)cc(=O)[nH]2)o1"
measured_quantity = "CC50 at 24 h"
inequality_symbol = ">"
endpoint_value = 1000

[[record]]
compound = "Oc1ccc(/C=C/c2cc(O)cc(O)c2)cc1 [RESVERATROL]"
measured_quantity = "CC50 at 24 h"
inequality_symbol = "="
endpoint_value = 22.8

